B1: LINE1-mini (parent)
chain: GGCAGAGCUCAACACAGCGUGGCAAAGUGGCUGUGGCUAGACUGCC

Variants of: B1
ASSAY NAME: self-cleavage, relative activity (ratio to wild type); higher = more cleavage; in vitro, sequencing; the parent is a self-cleaving ribozyme
Listing of entries alongside the reported self-cleavage.

{"columns": ["VARIANT KEY", "self-cleavage"],
 "data": [
  ["A14U A25C", 0.3],
  ["A11G A26C", 0.03],
  ["G30C U32G", 0.3],
  ["A26U C42A", 0.29],
  ["A11U A14C", 0.01],
  ["A6G A14C", 0.14],
  ["A12C C31U", 0.02],
  ["A12C G33A", 0.05],
  ["C31A G33U", 0.08],
  ["A24C G29A", 1.02],
  ["G5A G30A", 0.22],
  ["G33U G40U", 0.14],
  ["G7U G35U", 0.1],
  ["U32C C46G", 0.1],
  ["A4C G7A", 0.87],
  ["A41U U43C", 0.09],
  ["G7U C8G", 0.32],
  ["A6G A41C", 0.15],
  ["G5U A16U", 0.06],
  ["G1U A16U", 0.05],
  ["A4G G21A", 1.05],
  ["A4G G17C", 0.5],
  ["C31A G44C", 0.04],
  ["C13A G19U", 0.09],
  ["G17U U38C", 0.04],
  ["A12G A25G", 0.03],
  ["A4C A12C", 0.03],
  ["G2C C8A", 0.17],
  ["G1C G7C", 0.02],
  ["G1A A12G", 0.04],
  ["C23A G44C", 0.51],
  ["G7C C31U", 0.05],
  ["U38C G40U", 0.1],
  ["A11U G27A", 0.16],
  ["G22C G35C", 0.08],
  ["C8A C15A", 0.37],
  ["G19U G22A", 0.78],
  ["G35U A39U", 0.1],
  ["U32C G33C", 0.04],
  ["G22C G27A", 0.75],
  ["A25G G44U", 0.28],
  ["A6G U43C", 0.09],
  ["C31U U38G", 0.05],
  ["G7A G33U", 0.18],
  ["C18A A25C", 0.36],
  ["U9A C15G", 0.25]
]}
